tested on: HCT-116; experiment: NCI tumour cell line growth inhibition, 48 h
Active and inactive are the calls of the source. Rule as the data show it: active = GI50 up to about 1.1 µM and inactive = higher.
Answer with one of the outcomes 1 = active, 0 = inactive

Observe how each entry below is paired with its result.
>  <molecule>
CC[N+]1(C)CCC(O)(c2ccccc2)C(C(=O)c2ccccc2)C1 (stereo not drawn)

>  <label.class>
0

$$$$
>  <molecule>
COC1=C(C)C(=O)C2=C(C1=O)[C@@H]1[C@@H]3Cc4c(OC(=O)CO)c(C)c(OC)c(O)c4[C@H](CNC(=O)C(C)=O)N3[C@@H](C#N)[C@H](C2)N1C

>  <label.class>
1

$$$$
>  <molecule>
COC(=O)C1=CCS(=O)(=O)C1

>  <label.class>
0

$$$$
>  <molecule>
O=C1C[S+]([O-])C23c4cc5ccccc5n4CCC2CCCN13 (stereo not drawn)

>  <label.class>
0

$$$$
>  <molecule>
O=C1CC(C(O)(C(F)(F)F)C(F)(F)Cl)CCC1C(O)(C(F)(F)F)C(F)(F)Cl (stereo not drawn)

>  <label.class>
0

$$$$

Field: next molecule
Prompt: Please share the test call associated with COC(=O)/N=[N+](\[O-])C(c1ccccc1)c1ccccc1 .
Response: 0

----------
system: NCI/ADR-RES; assay: NCI tumour cell line growth inhibition, 48 h
Active and inactive are the calls of the source. Rule as the data show it: active = GI50 up to about 1.1 µM and inactive = higher.
recorded.metric: GI50

>  <molecule>
CCN(CC)C(=O)Cn1c2c(c3ccccc31)CCCC2

>  <target.of.assay>
NCI/ADR-RES

>  <recorded.measurement>
66.4 µM (inactive)

$$$$

Need GI50 for each of these molecules.
1. O=C(O)c1ccc(CNCc2ccccc2)cc1
2. COc1ccc(C(=O)c2sc(Nc3ccc(Cl)cc3)nc2N)cc1
3. COc1ccc(/N=N/c2ccc3oc(=O)c(C(=O)Nc4ccc(Cl)cc4)cc3c2)cc1
4. Cc1cc(C)c(N)c(CO)c1
5. COc1ccc([C@H]2[C@H](C)C3=Nc4ccccc4CN32)cc1
6. C=CC(CBr)CCC(Br)C(C)(C)Br (stereo unspecified)
7. CCC1(CC)CC(=NNS(=O)(=O)c2ccc(C)cc2)C1
8. COc1cc(NCCC2CCCCN2)c2ncccc2c1 (stereo unspecified)

Response:
1. > 100 µM (inactive)
2. 5.37 µM (inactive)
3. 5.5 µM (inactive)
4. > 100 µM (inactive)
5. > 100 µM (inactive)
6. > 10 µM (inactive)
7. > 100 µM (inactive)
8. > 100 µM (inactive)

State the recorded GI50 for every item in the following list.
1. COc1ccc(C(=O)Cn2c(C(=O)/C=C/c3ccco3)nc3ccccc32)cc1
2. CC1=NC2(CCCCC2)N(Cl)C(=O)C1SC#N (stereo unspecified)
3. CC1=Nc2nc(Cl)cn2C(=O)C1(Cl)Cl
4. COC(=O)C1C(=O)C(C(=O)OC)C2CCC1N2C (stereo unspecified)

Response:
25.9 µM (inactive)
20.3 µM (inactive)
> 10 µM (inactive)
48.6 µM (inactive)

Respectfully, I request GI50 for each entry included below.
1. CC(=O)O[C@H]1[C@@H](N2CCCCC2)C[C@H]2[C@@H]3CC=C4C[C@@H](N5CCCC5)CC[C@]4(C)[C@H]3CC[C@@]21C
2. C=C1C(=O)OC2CC1C(OC(=O)/C=C/c1ccccc1)C/C(C)=C/CC/C(C)=C/CCC2(C)O (stereo unspecified)
3. COC(=O)CCC(=O)NC1=C(Nc2ccccc2)C(=O)c2ccccc2C1=O
4. Oc1[nH]c(Nc2cccc(Br)c2)nc2ncnc1-2
5. CCNCC(O)COc1ccc2c(c1)[n+]([O-])nc(N)[n+]2[O-] (stereo unspecified)
6. COc1ccccc1NCc1nnc(CCCCCCCCc2nnc(CNc3ccccc3OC)o2)o1
7. COc1cnc2oc3ccc(O)cc3c2c1-c1ccccc1

Response:
1. > 100 µM (inactive)
2. 1.74 µM (inactive)
3. 14.8 µM (inactive)
4. > 100 µM (inactive)
5. > 100 µM (inactive)
6. > 100 µM (inactive)
7. 30.3 µM (inactive)

For each of the molecules below, note its GI50.
1. S=C1NCN2CCN(CC2)CNC(=S)C(=S)NCN2CCN(CC2)CNC1=S
2. C1CSC[C@H]2COC[C@@H](CSCCS1)S2
3. CC(=O)c1ccc(-c2oc(-c3ccccc3)cc2-c2ccc3c(c2)OCO3)s1
4. C#CCn1c(=O)c2cc(OC)c(OC)cc2n(CC#C)c1=O

Response:
1. 67.5 µM (inactive)
2. > 100 µM (inactive)
3. 49.7 µM (inactive)
4. > 10 µM (inactive)

----------
tested on: OVCAR-3; assay: NCI tumour cell line growth inhibition, 48 h
Activity calls are given as the source filed them. Rule as the data show it: active = GI50 up to about 1.1 µM and inactive = higher.
recorded.metric: GI50

Could you report GI50 for every entry in the following list?
1. CNC(=S)/N=c1/sc(NC)nc2sc3c(c12)CCCC3
2. NC(Cc1ccc(S(=O)(=O)O)cc1)C(=O)NC(Cc1ccc(S(=O)(=O)O)cc1)C(=O)O (stereo unspecified)
3. COc1cnc2oc3ccc(O)cc3c2c1-c1ccccc1
4. COC1=CC(=O)C2C(C1=O)C(c1ccccc1)[C@H]2C (stereo partly specified)
5. O=c1[nH]c(=S)[nH]cc1CN1CCOCC1

Response:
> 100 µM (inactive)
> 100 µM (inactive)
4.27 µM (inactive)
87.1 µM (inactive)
> 100 µM (inactive)

Prompt: Assign GI50 to the following record: CCN(CC)CC(O)C1CCC(c2ccccc2)CC1 (stereo unspecified)
Response: 44 µM (inactive)

----------
What GI50 was measured for each of the following?
tested on: HCT-116; assay: NCI tumour cell line growth inhibition, 48 h
Activity calls are given as the source filed them. Rule as the data show it: active = GI50 up to about 1.1 µM and inactive = higher.

>  <compound>
COc1ccc(/N=N/c2c(N)nn(C)c2N)cc1

>  <recorded.metric>
GI50

>  <recorded.measurement>
> 100 µM (inactive)

$$$$

List GI50 for every entry below, keeping the order given.
1. CC(C)(C)OC(=O)Nc1cc(-c2ccccc2)co1
2. CN(C)CCCNc1ccc2nnn3c4ccc(OC(=O)c5ccc([N+](=O)[O-])cc5)cc4c(=O)c1c23
3. O=C1c2ccccc2C(=O)N1C/C=N/NS(=O)(=O)c1ccc2ccccc2c1
4. N#CC(/C(=N/NC(N)=S)C(=O)Nc1cccc(Cl)c1)c1ccccc1 (stereo not drawn)
5. COc1c2c(c3ccccc3c1O)C1C=CC2C1 (stereo not drawn)
6. Cc1ccc(-n2cc(-c3ccc(Cl)cc3)c(C#N)c2N)cc1

Response:
83.9 µM (inactive)
1.51 µM (inactive)
> 100 µM (inactive)
> 100 µM (inactive)
4 µM (inactive)
14 µM (inactive)

Kindly give each listed record's GI50.
1. COC(=O)C[S+]([O-])c1ccccc1 (stereo not drawn)
2. Cc1ccc(/N=N/c2cc(=O)[nH]c(=O)[nH]2)cc1C
3. COC(=O)[C@@]12CC3CN(Cc4c1[nH]c1ccccc41)C2CC3=O
4. COc1ccc(-c2c3c(nc4[nH]c(=S)[nH]c(=S)c24)CCCC3)cc1OC
5. Cc1ccc(C(=O)N/N=C(\N=N\c2cccc([N+](=O)[O-])c2)c2ccc(N(C)C)cc2)cc1

Response:
1: 30.3 µM (inactive); 2: 5.58 µM (inactive); 3: > 100 µM (inactive); 4: 29.4 µM (inactive); 5: > 100 µM (inactive)

Provide each entry's GI50 from the list below.
1. C=C1C(=O)C[C@H]2C(=C)C(=O)O[C@@H]2C2C1CC[C@@]2(C)O (stereo partly drawn)
2. CCCCCC(/C=C/[C@@H]1[C@H]2CC(=O)O[C@H]2C[C@H]1N1CCOCC1)OC1CCCO1 (stereo partly drawn)
3. O=C1NC2(CCCC2)/C(=N\O)C12CCCC2
4. O=C1c2ccccc2C(=O)c2c(NCCNCCO)ccc(O)c21
5. COC(=O)c1cc(C#N)[nH]c1-c1ccsc1

Response:
31.8 µM (inactive)
> 100 µM (inactive)
> 100 µM (inactive)
1.81 µM (inactive)
> 100 µM (inactive)

----------
Give GI50 for every item shown.
test system: CCRF-CEM; experiment: NCI tumour cell line growth inhibition, 48 h
Active and inactive are the calls of the source. No stated cut-off is given here; in the data, active = GI50 up to about 1.1 µM and inactive = higher.

For every item below, please supply its GI50.
1. N#CC(/C(=N/NC(N)=S)C(=O)Nc1cccc(Cl)c1)c1ccccc1 (stereo unspecified)
2. CC[N+]1(C)CCC(O)(c2ccccc2)C(C(=O)c2ccccc2)C1 (stereo unspecified)
3. CC(C)(C)OC(=O)N1C/C=C\C(=O)C2(OCCO2)c2ccccc21
4. O=C1C2C(C(=O)N1Cc1ccccc1)N(Cc1ccccc1)C(=O)N2Cc1ccccc1 (stereo unspecified)
5. C#CCNC(=O)CCC(N)C(=O)O (stereo unspecified)
6. Oc1[nH]c(Nc2cccc(Br)c2)nc2ncnc1-2
7. CC1(C)OC[C@@H](C[C@H](O)COCc2ccccc2)O1

Response:
1: > 100 µM (inactive); 2: 2.04 µM (inactive); 3: 25.4 µM (inactive); 4: > 100 µM (inactive); 5: > 100 µM (inactive); 6: 54.7 µM (inactive); 7: > 100 µM (inactive)
